# Experimental target: Serine/threonine-protein kinase pim-2 (Homo sapiens, UniProt Q9P1W9)
# Sequence (Q9P1W9 whole entry, looked up): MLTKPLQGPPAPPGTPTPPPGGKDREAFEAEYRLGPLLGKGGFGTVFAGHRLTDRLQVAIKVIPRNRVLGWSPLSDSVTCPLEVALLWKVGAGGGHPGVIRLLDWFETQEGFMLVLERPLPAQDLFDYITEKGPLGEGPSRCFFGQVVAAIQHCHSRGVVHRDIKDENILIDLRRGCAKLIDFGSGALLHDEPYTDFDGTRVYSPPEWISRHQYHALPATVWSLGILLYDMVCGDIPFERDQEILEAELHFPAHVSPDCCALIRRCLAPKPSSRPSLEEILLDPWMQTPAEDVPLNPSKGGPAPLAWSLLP
Note: every record was labeled by where its ΔTm sits among low class = under 0.1 °C, middle class = from 0.1 °C up to 1 °C, high class = 1 °C and over

Consider the worked cases shown below.
Cc1nc2sccn2c(=O)c1CCN1CCC(=C(c2ccccc2)c2ccc(F)cc2)CC1 : high class
NC(=O)c1ccc(-c2nc(-c3ccc4c(c3)OCCO4)c(-c3ccccn3)[nH]2)cc1 : low class

Problem: Lab log: `Oc1ccc(-c2nc(-c3ccc(F)cc3)c(-c3ccncc3)[nH]2)cc1` — assign ΔTm category
Result: middle class

Problem: Entry `CC(C)c1cc(/C=C(\C#N)C(=O)NCCCc2ccccc2)cc(C(C)C)c1O` belongs to which category?
Result: middle class

Problem: Record `O=C(O)c1cc(NCc2cc(O)ccc2O)ccc1O` — which class?
Result: middle class

* * *

# Experimental target: Tyrosine-protein kinase ABL1 (Homo sapiens, UniProt P00519)
# Sequence (P00519 whole entry): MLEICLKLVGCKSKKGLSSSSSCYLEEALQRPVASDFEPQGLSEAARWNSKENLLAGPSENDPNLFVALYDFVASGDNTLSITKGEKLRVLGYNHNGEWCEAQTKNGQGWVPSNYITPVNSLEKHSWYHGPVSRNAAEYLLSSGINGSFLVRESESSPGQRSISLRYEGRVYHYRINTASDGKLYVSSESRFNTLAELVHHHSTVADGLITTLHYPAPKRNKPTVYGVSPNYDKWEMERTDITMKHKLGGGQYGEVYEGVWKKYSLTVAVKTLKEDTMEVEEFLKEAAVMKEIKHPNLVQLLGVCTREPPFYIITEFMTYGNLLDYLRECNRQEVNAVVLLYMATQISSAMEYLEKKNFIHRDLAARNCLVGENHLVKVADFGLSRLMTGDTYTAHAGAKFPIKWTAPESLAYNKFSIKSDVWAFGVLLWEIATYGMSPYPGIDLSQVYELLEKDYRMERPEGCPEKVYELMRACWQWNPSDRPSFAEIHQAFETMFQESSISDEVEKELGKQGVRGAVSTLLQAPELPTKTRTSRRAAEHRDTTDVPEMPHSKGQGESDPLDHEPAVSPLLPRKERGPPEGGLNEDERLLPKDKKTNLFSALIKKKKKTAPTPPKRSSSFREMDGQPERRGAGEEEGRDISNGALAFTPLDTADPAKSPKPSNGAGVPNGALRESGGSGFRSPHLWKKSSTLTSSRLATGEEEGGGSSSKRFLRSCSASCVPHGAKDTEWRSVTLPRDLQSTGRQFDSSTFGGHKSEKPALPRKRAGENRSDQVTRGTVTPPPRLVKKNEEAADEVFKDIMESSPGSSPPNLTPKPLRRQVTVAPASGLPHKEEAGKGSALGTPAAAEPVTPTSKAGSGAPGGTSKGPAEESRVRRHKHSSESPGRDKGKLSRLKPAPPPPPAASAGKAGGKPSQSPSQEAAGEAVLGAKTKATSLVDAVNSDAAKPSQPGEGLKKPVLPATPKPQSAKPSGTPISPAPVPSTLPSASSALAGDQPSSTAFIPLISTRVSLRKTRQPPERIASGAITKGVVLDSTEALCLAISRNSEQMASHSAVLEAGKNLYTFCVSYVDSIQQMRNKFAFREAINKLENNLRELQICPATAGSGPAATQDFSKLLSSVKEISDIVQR
pIC50: −log10 of the molar value.
Assay metric: pIC50

Problem: Find the measured pIC50 of `c1ccc(-c2n[nH]c3c2oc2ccccc23)cc1` and report it.
Result: ≤ 5.00

* * *

// ΔTm collected for Dual specificity protein kinase CLK2 (Homo sapiens) (UniProt P49760)
Numbers only, in °C.

Example cases with answers are listed next.
O=C(O)Cc1ccc(O)c([N+](=O)[O-])c1 : 0.5
NCCNc1ncc(C(N)=O)c(Nc2cccc(C(F)(F)F)c2)n1 : 1.6
O=C(O)/C=C/c1cc(CO)ccc1CO : 0.6
Clc1ccc(Nc2nnc(Cc3ccncc3)c3ccccc23)cc1 : -0.6

Batch request: ΔTm per item, same order as input.
1. COc1cc2c(cc1OC)-c1n[nH]c(Nc3cccc(F)c3)c1C2
2. COc1cc(C[C@H]2C(=O)OC[C@@H]2Cc2ccc(OC)c(OC)c2)ccc1O

Result:
1.1
-0.1

// each listed compound needs a value for ΔTm
1. CC(C)c1nn(-c2c(Cl)cccc2Cl)c2nc(Cc3ccc(OCCO)cc3)[nH]c(=O)c12
2. Oc1cccc(-c2nc(N3CCOCC3)c3oc4ncccc4c3n2)c1
3. NC(=O)c1ccc(-c2nc(-c3ccc4c(c3)OCCO4)c(-c3ccccn3)[nH]2)cc1
4. N#CC(C#N)=Cc1ccc(O)c(O)c1
5. Nc1nc(Nc2ccc(S(N)(=O)=O)cc2)nn1C(=S)Nc1c(F)cccc1F
6. O=C1NC(=O)C(c2c[nH]c3ccccc23)=C1c1c[nH]c2ccccc12
7. CN(C)CCCn1cc(C2=C(c3c[nH]c4ccccc34)C(=O)NC2=O)c2ccccc21

Result:
1: 1.3; 2: 0; 3: -0.3; 4: 0.1; 5: 8.9; 6: 2.5; 7: 4.1

Batch: ΔTm for all items listed.
1. CCOC(=O)c1cnc2oc3ccc(O)cc3c2c1-c1ccccc1
2. Ic1cccc(CSc2nnc(-c3ccncc3)o2)c1
3. C/C(O)=C(\C#N)C(=O)Nc1cc(Br)ccc1Br
4. CC(C)(C)n1nc(-c2cccc3ccccc23)c2c(N)ncnc21
5. NCCNS(=O)(=O)c1cccc2c(Cl)cccc12
6. CN(C)C[C@@H]1CCn2cc(c3ccccc32)C2=C(C(=O)NC2=O)c2cn(c3ccccc23)CCO1

Result:
1: 3.5; 2: 1.7; 3: 0.5; 4: 0.8; 5: 0.3; 6: 4.2

Look at each compound and report its ΔTm.
1. O=C1NC(=O)c2c1c1c3ccccc3[nH]c1n1cncc21 [ISOGRANULATIMIDE]
2. O=c1cc(N2CCOCC2)oc2c(-c3ccccc3)cccc12
3. O=c1c(O)c(-c2ccc(O)c(O)c2)oc2cc(O)cc(O)c12

Result:
4.1
0.1
4.9
